test system: U2OS; assay: Multiplex assay against U2OS; type: toxicity, cell-based; details: human, 12 h, 10 µM, compound concentration 10 uM, replicate 1
Is Population Mitochondria Different-Phenotype (%) at least 80%? Then criterion met. If not, criterion not met.

Use the examples below as a reference point.
CCc1cccc(CC)c1NC(=O)c1nn(C)c2c1CCc1cnc(Nc3ccc(C(=O)NC4CCN(C)CC4)cc3OC(F)(F)F)nc1-2	criterion met
Cn1nc(C(=O)NCc2ccc(C(=O)O)cc2)cc1-c1ccc2[nH]ccc2c1	criterion not met
CCCn1c(=O)c2[nH]c(-c3cnn(Cc4cccc(C(F)(F)F)c4)c3)nc2n(CC)c1=O	criterion not met

Let's switch to this compound now.
query: Quick check: does "CCn1cc(-c2ccnc3[nH]c(-c4cccc(CN(C)C)c4)cc23)c(-c2ccc(NC(=O)N(C)C)cc2)n1" have Population Mitochondria Different-Phenotype (%) greater than or equal to 80%?
result: criterion not met

* * *

tested on: HEK-293T; assay: Multiplex assay against HEK293T; type: toxicity, cell-based; settings: human, 12 h, 1 µM, compound concentration 1 uM, replicate 1
reported_endpoint: Population Membrane Permeable-Phenotype (%)
Express your answer in %, writing the number without its unit.

CCN1CCN(c2ccc(Nc3cc(N(C)C(=O)Nc4c(Cl)c(OC)cc(OC)c4Cl)ncn3)cc2)CC1	18
O=C1N/C(=N/c2ccccc2F)S/C1=C\c1ccc(C(=O)O)cc1	0
C=C1/C(=C\C=C2/CCC[C@]3(C)[C@@H]([C@H](C)/C=C/[C@H](C)C(C)C)CC[C@@H]23)C[C@@H](O)C[C@@H]1O	3
CCn1cc(-c2ccnc3[nH]c(-c4cccc(CN(C)C)c4)cc23)c(-c2ccc(NC(=O)N(C)C)cc2)n1	16
Cc1ccc2nc(NCCN)c3ncc(C)n3c2c1.O=C(O)C(F)(F)F.O=C(O)C(F)(F)F	6
COc1ccc(-c2ccc3c(N4CCOCC4)nc(N4C[C@@H](C)O[C@@H](C)C4)nc3n2)cc1CO	6
Cl.Oc1ccc2c3c1O[C@H]1c4[nH]c5c(c4C[C@@]4(O)[C@@H](C2)N(CC2CC2)CC[C@]314)C[C@@]1(O)[C@H]2Cc3ccc(O)c4c3[C@@]1(CCN2CC1CC1)[C@H]5O4	0
CCN1CCN(Cc2ccc(Nc3ncc(F)c(-c4cc(F)c5nc(C)n(C(C)C)c5c4)n3)nc2)CC1.CS(=O)(=O)O	0

Briefly, Population Membrane Permeable-Phenotype (%) measured for "Cl.O=C(c1ccc(Nc2nccc(-c3cc4ccccc4s3)n2)cc1)N1CCC(N2CCCC2)CC1" : 17

Recorded Population Membrane Permeable-Phenotype (%) (compound "CNC(=O)c1ccc(Nc2nc(OC3CCCC3)c3c(-c4ccc5nc(C)oc5c4)c[nH]c3n2)c(OC)c1" ): 19

Reported Population Membrane Permeable-Phenotype (%) for "O=C1NC(=O)C(c2cnc3ccccn23)=C1c1cn2c3c(cc(F)cc13)CN(C(=O)N1CCCCC1)CC2" was 10

* * *

Here the recorded Population Tubulin-Different-Phenotype (%) is given for each entry.
test system: Fibroblast; assay: Multiplex assay against human fibroblast; format: toxicity, cell-based; conditions: 24 h, 1 µM, compound concentration 1 uM, replicate 2
Enter your answer as a number in %; do not include the unit.

Take a look at these entries with their results.
Cl.O=C(c1ccc(Nc2nccc(-c3cc4ccccc4s3)n2)cc1)N1CCC(N2CCCC2)CC1	32
Cc1ccc(C(=O)Nc2cccc(C(F)(F)F)c2)cc1Nc1nc(-c2cccnc2)nc2c1cnn2C	16
CN1C2CCC1CC(OC(c1ccc(F)cc1)c1ccc(F)cc1)C2.Cl (configuration not stated)	8
COc1cccc2cc(-c3nc([C@H]4CC[C@H](C(=O)O)CC4)n4ncnc(N)c34)[nH]c12	13
NC(=O)c1cccc(-c2cc(Nc3ccc(OC(F)(F)F)cc3)ncn2)c1	12
O=C(Cc1ccc(-c2ccc(OCCN3CCOCC3)cc2)cn1)NCc1ccccc1	10

Sure, the documented Population Tubulin-Different-Phenotype (%) for "COc1ccc(S(=O)(=O)N(CCO)c2ccccc2CN(C)C/C=C/c2ccc(Cl)cc2)cc1.O=P(O)(O)O" is 88
